Quick reference for Population Healthy Nuclei (%) among some molecules
- System: HEK-293T
- test: Multiplex assay against HEK293T
- Type: toxicity, cell-based
- condition-set: human, 24 h, 10 µM, compound concentration 10 uM, replicate 1
Field format: number, assumed %, no unit text.

Would you please look over these solved cases?
>  <molecule>
CCn1c(-c2nonc2N)nc2cnc(Oc3cccc(NC(=O)c4ccc(OCCN5CCOCC5)cc4)c3)cc21 [GSK-269962A]

>  <Population Healthy Nuclei (%)>
31

$$$$
>  <molecule>
CCOc1cc(N2CCC(O)CC2)ccc1Nc1ncc2c(n1)N(C1CCCC1)CCC(=O)N2C

>  <Population Healthy Nuclei (%)>
76

$$$$
>  <molecule>
Cc1cc2c(cc1N1C(=O)c3cccc4c(CCCO)ccc(c34)C1=O)n(C)c(=O)n2C

>  <Population Healthy Nuclei (%)>
54

$$$$
>  <molecule>
Cl.Cl.Nc1ncnc2c1c(-c1cccc(OCc3ccccc3)c1)cn2[C@H]1C[C@@H](CN2CCC2)C1

>  <Population Healthy Nuclei (%)>
9

$$$$
>  <molecule>
COc1cc2c(NC3CCN(C(C)C)CC3)nc(N3CCC(F)(F)CC3)nc2cc1OCCCN1CCCC1

>  <Population Healthy Nuclei (%)>
23

$$$$

Let us move to another entry and its Population Healthy Nuclei (%).
For record CNc1oc(-c2cccc3ccccc23)nc1C#N the listed Population Healthy Nuclei (%) is 15

###

Quick reference for Growth Rate among some molecules
- Tested on: Fibroblast
- test: Incucyte cell viability with human fibroblast; also: filed as whole numbers so only -1 and 0 and 1 occur
- Format: toxicity, cell-based
- condition-set: 6 h, 10 µM, compound concentration 10 uM, replicate number 1, timepoint 6 hours
I'd appreciate a reply containing only the number, no unit.

Would you please look over these solved cases?
>  <molecule>
C[C@H](c1ccnc(Nc2nc3ccc(-c4cc(N(C)C)ncn4)cc3[nH]2)c1)N1CCN(C(=O)CC(F)(F)F)CC1 [BAY-985]

>  <data-value>
1

$$$$
>  <molecule>
Cl.Cl.NC1(c2ccc(-c3nc4ccn5c(=O)[nH]nc5c4cc3-c3ccccc3)cc2)CCC1

>  <data-value>
0

$$$$

For record CC(C)Oc1ccc(-c2nn([C@@H](C)c3oc4ccc(F)cc4c(=O)c3-c3cccc(F)c3)c3ncnc(N)c23)cc1F [UMBRALISIB] the listed Growth Rate is 1

For record Cc1nc(Cc2cccc(C(F)(F)F)c2)sc1-c1ccc(C(N)=O)nc1 [TP-024n] the listed Growth Rate is 0

For record CCc1cc2c(c(CC)n1)CCC(=O)N2Cc1ccc(-c2ccccc2-c2nnn[nH]2)cc1.Cl the listed Growth Rate is 0

For record CCCc1c(-c2ccc(O)cc2)nn(-c2ccc(O)cc2)c1-c1ccc(O)cc1 [PROPYLPYRAZOLETRIOL] the listed Growth Rate is 0

For record COc1ccccc1C(=O)Nc1cc2c(cc1N1CCCC1)n(C)c(=O)n2C the listed Growth Rate is 1

For record FC(F)c1nc2ccccc2n1-c1nc(N2CCOCC2)nc(N2CCOCC2)n1 [ZSTK-474] the listed Growth Rate is 0

###

- System: Fibroblast
- test: Multiplex assay against human fibroblast
- Assay type: toxicity, cell-based
- condition-set: 24 h, 10 µM, compound concentration 10 uM, replicate 2
Quick reference for Population Pyknosed Nuclei (%) among some compounds
Field format: number, assumed %, no unit text.

>  <compound>
N#Cc1cnc(Nc2cc(NC[C@H]3CNCCO3)c(C(F)(F)F)cn2)cn1

>  <data-value>
14

$$$$
>  <compound>
COc1ccc(NS(=O)(=O)c2sc3ccc(Cl)cc3c2C)cc1N1CCNCC1.Cl

>  <data-value>
35

$$$$
>  <compound>
Cc1cn(-c2cc(NC(=O)c3ccc4c(c3)CN(c3cncnc3)C[C@@H]4C)cc(C(F)(F)F)c2)cn1

>  <data-value>
12

$$$$
>  <compound>
CCn1c(-c2nonc2N)nc2cnc(Oc3cccc(NC(=O)c4ccc(OCCN5CCOCC5)cc4)c3)cc21 [GSK-269962A]

>  <data-value>
17

$$$$
>  <compound>
CCC(=O)O[C@]1(C(=O)SCF)[C@H](C)C[C@H]2[C@@H]3C[C@H](F)C4=CC(=O)C=C[C@]4(C)[C@@]3(F)[C@@H](O)C[C@@]21C [FLUTICASONE PROPIONATE]

>  <data-value>
16

$$$$

For record CN(C)C/C=C/C(=O)Nc1cc2c(Nc3ccc(F)c(Cl)c3)ncnc2cc1O[C@H]1CCOC1.O=C(O)/C=C\C(=O)O.O=C(O)/C=C\C(=O)O [AFATINIB DIMALEATE] the listed Population Pyknosed Nuclei (%) is 14

For record Nc1nc2c(c(N3CCNCC3)n1)CCC1=C2[C@@H]2CCCC[C@@H]2O1 the listed Population Pyknosed Nuclei (%) is 45

For record CNc1oc(-c2cccc3ccccc23)nc1C#N the listed Population Pyknosed Nuclei (%) is 25
